- System: Hep G2 cells
- experimental protocol: In vitro toxicity (CellTiter-Glo cell viability), Hep G2;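 note: percent of untreated cells luminescence signal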
- Assay type: cell-based
- study conditions: cirRNA (SEQ ID NO: 1) LNPs; Hep G2 cells
Can you tell me In vitro Viability HepG2 for the items I'm about to list?
Answer format: numeric, % implied, no suffix.

Respond only with In vitro Viability HepG2 recorded for CCCCC/C=C\C/C=C\CCCCCCCCN(CCCCCCCC(=O)OC(CCCCCCCC)CCCCCCCC)CCOC(=O)NCCCn1ccnc1
13

Give In vitro Viability HepG2 for CCCCCCCCCCC(CCCCCCCC)COC(=O)CCCCCN(CCCCCC(=O)OCC(CCCCCCCC)CCCCCCCCCC)CCCOC(=O)NCCCN(CC)CC (stereo not shown)
84

Consider the molecule CCCCCCCCCCCOC(=O)CCCCCN(CCCCCC(=O)OCCCCCCCCCCC)CCOC(=O)NCCN(C)C . State its measured In vitro Viability HepG2.
106

Indicate its recorded In vitro Viability HepG2; the molecule in question is CCCCCCCCC(CCCCCC)C(=O)OCCCCCCCCN(CCCCCCCCOC(=O)C(CCCCCC)CCCCCCCC)CCCOC(=O)NCCN1CCC1 (stereo not shown)
42
